Where these numbers come from: paper PMC5540273

- Test system: IRAK1;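 also: KINOMEscan kinase panel screen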
- condition_summary: concentration: 1 μM, replicates: in singlicate; n = 1
parameter_measured: %Inh (%)
The figure you give is taken to be in %; do not add the unit.

Measured %Inh of `COc1ccc(C2=C(Nc3cccc(C(=O)O)c3)C(=O)NC2=O)cc1` : 28

response.value for `Cc1ccc(-c2cc(-c3c[nH]nc3-c3ccccn3)ccn2)cc1` (field: %Inh) = 0

%Inh recorded for this compound, COc1cc2ncn(-c3cc(OCC4CCCO4)c(C(N)=O)s3)c2cc1OC (centres unmarked) , is 0

Measured %Inh, `Fc1cccc(COc2nnc(-c3ccc4c(c3)CCO4)o2)c1` : 44

Query `Cc1ccc(C(=O)Nc2ccc(Nc3ccnc4cc(-c5ccccn5)ccc34)cc2O)cc1.Cl` yields %Inh of 28
